Value source: EPA's aquatic toxicity sets

Tested on: Tetrahymena pyriformis
Assay: 48 h IGC50 (-log10 mol/L); higher = more toxic
Heads up, the class ranges for 48 h IGC50 (-log10 mol/L) are class 1 (below 3), class 2 (3 to below 4), class 3 (4 or more)

compound	measured-target	assigned-class
O=Cc1ccc(F)cc1	Tetrahymena pyriformis	class 1
O=C(CBr)c1cc2ccccc2oc1=O	Tetrahymena pyriformis	class 3
C=CCc1ccc(O)c(OC)c1	Tetrahymena pyriformis	class 2
CCCN=C=S	Tetrahymena pyriformis	class 3
COc1ccc(N)cc1O	Tetrahymena pyriformis	class 2
Cc1ccnc(Cl)c1[N+](=O)[O-]	Tetrahymena pyriformis	class 2
C=CCCl	Tetrahymena pyriformis	class 1
O=C/C=C/c1ccccc1	Tetrahymena pyriformis	class 2
CC(C)(O)c1ccccc1	Tetrahymena pyriformis	class 1
O=[N+]([O-])c1ccc(/C=N/O)cc1	Tetrahymena pyriformis	class 2
C=C(C)C(=O)OCc1ccccc1	Tetrahymena pyriformis	class 2
N#CCCCc1ccccc1	Tetrahymena pyriformis	class 2
COC(=O)CCCCCCC(=O)OC	Tetrahymena pyriformis	class 2
CCC(O)Cc1ccccc1 (stereo not given)	Tetrahymena pyriformis	class 1
CCOC(=O)c1ccc(C(C)(C)C)cc1	Tetrahymena pyriformis	class 3
CC=CC(C)O (stereo not given)	Tetrahymena pyriformis	class 1
CCCCOC(=O)CCCCC(=O)OCCCC	Tetrahymena pyriformis	class 2
OCC(Cl)(Cl)Cl	Tetrahymena pyriformis	class 1
CCCCCCOc1ccc(N)cc1	Tetrahymena pyriformis	class 3
CCOC(=O)C[C@@H](C)O	Tetrahymena pyriformis	class 1
Cc1c(Cl)cccc1[N+](=O)[O-]	Tetrahymena pyriformis	class 2
CCCCCCCC(O)CCCCC (stereo not given)	Tetrahymena pyriformis	class 3
CCC(O)CO (stereo not given)	Tetrahymena pyriformis	class 1
OCc1c(F)c(F)c(F)c(F)c1F	Tetrahymena pyriformis	class 1
Nc1cc([N+](=O)[O-])cc(Cl)c1O	Tetrahymena pyriformis	class 3
Oc1ccc(Cl)c(O)c1	Tetrahymena pyriformis	class 2
CC#CCOC(C)=O	Tetrahymena pyriformis	class 1
CC/C=C/CC(=O)O	Tetrahymena pyriformis	class 1
C=CC(=O)OC	Tetrahymena pyriformis	class 2
CCCC(=O)O	Tetrahymena pyriformis	class 1
N#Cc1cc(Cl)ccc1N	Tetrahymena pyriformis	class 2
CCCCCN	Tetrahymena pyriformis	class 1
O=[N+]([O-])c1ccc(Br)c([N+](=O)[O-])c1	Tetrahymena pyriformis	class 3
COc1ccc(C(=O)c2ccccc2)c(O)c1	Tetrahymena pyriformis	class 3

----------
Listed here: items and their measured 48 h IGC50 (-log10 mol/L).
Test system: Tetrahymena pyriformis
Assay: 48 h IGC50 (-log10 mol/L); higher = more toxic
measurement-label: 48 h IGC50 (-log10 mol/L)

1. Cc1c(O)cccc1[N+](=O)[O-] 3.78
2. Cc1ccc(Cl)cc1N 3.5
3. Cc1cc(O)c(Cl)cc1C 3.69
4. CN(C)c1ccc(C=O)cc1 3.23
5. CCC(C)=NO 1.93
6. CCOC(=O)c1ccccc1 2.99
7. CC(=O)OCCCCBr 3.39
8. CC(C)C[C@H](N)CO 2.38
9. c1cnccn1 1.18
10. CCCCCCCC(=O)OC 3.54
11. CCCCCCCCC(C)=O 3.58
12. CC(C)(C)c1cc([N+](=O)[O-])c(O)c([N+](=O)[O-])c1 4.8
13. C/C=C/C(=O)OCCCC 2.84
14. C=Cn1c2ccccc2c2ccccc21 5.24
15. O=C(NO)c1ccccc1 3.38
16. Oc1ccc(-c2ccc(Br)cc2)cc1 5.31
17. O=[N+]([O-])c1cccc(Cl)c1Cl 4.07
